# target: human GLP-1 receptor (human, UniProt P43220 24-463)
# assay.comment: cell-based or functional assay
I'd appreciate it if you could supply cAMP Rel. A (%) against human GLP-1 (7-37), human GLP-1 R cells values for the items below.
Write it as a number; the unit % goes unstated.

So what's the measured cAMP Rel. A (%) against human GLP-1 (7-37), human GLP-1 R cells for this one? YXQGTXTSDYSIXLDKKAQXAFIEFLLEGGPSSGQPPPS (Aib at 2; αMeF(2F) at 6; αMeL at 13; Lys 17 side chain AEEAc-AEEAc-γGlu-CO(CH2)18COOH; Aib at 20; C-terminal amide (NH2)) [Compound 22]
733

Okay, and YXQGTXTSDYSIXLDKKAQXAFIEFLLESHPSSXHPPXS (Aib at 2; αMeF(2F) at 6; αMeL at 13; Lys 17 side chain AEEAc-AEEAc-γGlu-CO(CH2)18COOH; Aib at 20; Aib at 34; Ac3c at 38; C-terminal amide (NH2)) [Compound 40] ?
275

Next: YXQGTXTSDYSIXLDKKAQXAFIEYLLETGPSSGQPPXS (Aib at 2; αMeF(2F) at 6; αMeL at 13; Lys 17 side chain AEEAc-AEEAc-γGlu-CO(CH2)18COOH; Aib at 20; Ac3c at 38; C-terminal amide (NH2)) [Compound 34]
191

Entry YXQGTXTSDYSIFLDKKAQXAFIEYLLESXPSSGAPPXS (Aib at 2; αMeF at 6; Lys 17 side chain AEEAc-AEEAc-γGlu-CO(CH2)18COOH; Aib at 20; Aib at 30; Ac3c at 38; C-terminal amide (NH2)) [Compound 29] please
275

Another: YXQGTXTSDYSIXLDKKAQXAFIEYLLESHPSSGAPPXS (Aib at 2; αMeF at 6; αMeL at 13; Lys 17 side chain AEEAc-AEEAc-γGlu-CO(CH2)18COOH; Aib at 20; Ac3c at 38; C-terminal amide (NH2)) [Compound 3]
100

Likewise for YXQGTXTSDYSIFLDKKAQXAFIEYLLEXHPSSGAPPPS (Aib at 2; αMeF(2F) at 6; Lys 17 side chain AEEAc-AEEAc-γGlu-CO(CH2)18COOH; Aib at 20; Aib at 29; C-terminal amide (NH2)) [Compound 18] ?
367
